I'd be grateful if you could share measured AC50 for these entries.
system: HMLE_sh_eGFP viability, CellTiter-Glo luminescence, 72 h; assay: cytotoxicity in HMLE control line with eGFP shRNA, dose response, counter-screen for HMLE_sh_ECad selective toxicity project, cell-based, HMLE_sh_eGFP, luminescence (AID 463074);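 also: counterscreen control line to flag general toxicity for the HMLE_sh_ECad screen; potency for loss of viability as luminescence drops below DMSO wells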

Form field: AC50 recorded for Cc1cc(C)cc(-n2c(C)cc(/C=C3\C(=N)N4N=C(CC(C)C)SC4=NC3=O)c2C)c1 with HMLE_sh_eGFP viability, CellTiter-Glo luminescence, 72 h (enter value)
4.82 µM

Form field: AC50 recorded for CCN(Cc1ccccc1)S(=O)(=O)c1ccc(C(=O)N(CCCN(C)C)c2nc3cc(C)cc(C)c3s2)cc1 with HMLE_sh_eGFP viability, CellTiter-Glo luminescence, 72 h (enter value)
3.75 µM

Form field: AC50 recorded for Cc1ccc(CNc2cnn(C34CC5CC(CC(C5)C3)C4)c(=O)c2Cl)cc1 with HMLE_sh_eGFP viability, CellTiter-Glo luminescence, 72 h (enter value)
2.44 µM

Form field: AC50 recorded for CCOc1ccc(OCC(=O)N(CCC2=CCCCC2)c2c(N)n(Cc3ccccc3)c(=O)[nH]c2=O)cc1 with HMLE_sh_eGFP viability, CellTiter-Glo luminescence, 72 h (enter value)
6.29 µM
